Assay: clinical
Conditions: human, plasma, oral, 0.6 mg
Quantity Kind: CL/F (mL/min)
Numbers only, in mL/min.

Would you kindly share the measured CL/F for COc1cc2c(c(OC)c1OC)-c1ccc(OC)c(=O)cc1[C@@H](NC(C)=O)CC2 ?
465

====

Assay: Colchicine pharmacokinetics coadministered with fluconazole
Conditions: male, human, in vivo, 0.6 mg, Cmax, Treatment-1 (day 1): colchicine 0.6 mg alone, fasted; fluconazole study; mean
Quantity Kind: Cmax
The answer should read as a number with its unit following.

Would you kindly share the measured Cmax for COc1cc2c(c(OC)c1OC)-c1ccc(OC)c(=O)cc1[C@@H](NC(C)=O)CC2 [Colchicine] ?
1.93 ng/mL
